Taken from patent US9809598B2.

Target: TNKS2 (Homo sapiens, UniProt Q9H2K2)
Construct: GST-tagged Tnks-2 (873-1166 aa, prepared in-house); made in house
Sequence (Q9H2K2 873-1166): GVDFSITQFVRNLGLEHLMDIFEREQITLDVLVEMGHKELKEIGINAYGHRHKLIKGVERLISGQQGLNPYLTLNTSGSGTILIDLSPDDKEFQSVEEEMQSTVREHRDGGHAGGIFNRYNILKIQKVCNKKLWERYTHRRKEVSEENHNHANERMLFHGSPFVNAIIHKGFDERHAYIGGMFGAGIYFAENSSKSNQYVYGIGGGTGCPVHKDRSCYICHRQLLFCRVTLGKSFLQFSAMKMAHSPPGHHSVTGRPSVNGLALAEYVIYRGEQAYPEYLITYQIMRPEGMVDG
Experiment: TNKS2 activity ELISA (autoparsylation assay)
Assay type: biochemical
Conditions: GST-tagged Tnks-2 (873-1166 aa); read-out: IC50 [M] TNKS2 ELISA

{"Sample Smiles": "Cc1ccc(C(=O)C2CCN(C(=O)CCCc3nc4c(cnn4C)c(=O)[nH]3)CC2)cc1", "Unit": "M", "IC50": "3e-10"}
{"Sample Smiles": "O=C(CCCc1nn2cccc2c(=O)[nH]1)N1CCC(c2nnc(-c3ccccc3)o2)CC1", "Unit": "M", "IC50": "1e-08"}
{"Sample Smiles": "Cc1ccc2c(=O)[nH]c(CCCC(=O)N3CCC(C(=O)c4cnn(C(C)C)c4)CC3)nn12", "Unit": "M", "IC50": "5.1e-10"}
{"Sample Smiles": "Cn1cc(C(=O)C2CCN(C(=O)CCCc3nc4c(c(=O)[nH]3)CCCC4)CC2)cn1", "Unit": "M", "IC50": "2.1e-09"}
{"Sample Smiles": "Cn1cc(C(=O)C2CCN(C(=O)CCCc3nn4cccc4c(=O)[nH]3)CC2)cn1", "Unit": "M", "IC50": "1.4e-09"}
{"Sample Smiles": "Cc1ncc2c(=O)[nH]c(CCCC(=O)N3CCC(C(=O)c4cnn(C)c4)CC3)cn12", "Unit": "M", "IC50": "5.7e-10"}
{"Sample Smiles": "O=C(c1ccc(F)cc1)C1CCN(C(=O)CCCc2nn3cc(F)cc3c(=O)[nH]2)CC1", "Unit": "M", "IC50": "8.1e-10"}
{"Sample Smiles": "COc1ccc(C(=O)C2CCN(C(=O)CCCc3nc4c(C)csc4c(=O)[nH]3)CC2)cc1F", "Unit": "M", "IC50": "1.2e-10"}

* * *

Tested on: Tankyrases
Settings: read-out: EC50 [M] TNKS cellular assay; DLD1 cells, 24 hours, Axin2 increase
Here the recorded EC50 is given for each entry.
Assay Endpoint: EC50 (M)

{"Sample Smiles": "Cn1cc(C(=O)C2CCN(C(=O)CCCc3nn4cccc4c(=O)[nH]3)CC2)cn1", "Assay Endpoint": "EC50", "Number": "8.7e-08"}
{"Sample Smiles": "COc1ccc(C(=O)C2CCN(C(=O)CCCc3cn4c(C)ccc4c(=O)[nH]3)CC2)cc1C", "Assay Endpoint": "EC50", "Number": "2.9e-10"}
{"Sample Smiles": "Cn1ncc2c(=O)[nH]c(CCCC(=O)N3CCC(Oc4ccc(C#N)cc4)CC3)nc21", "Assay Endpoint": "EC50", "Number": "4.5e-07"}
{"Sample Smiles": "COc1ccc(C(=O)C2CCN(C(=O)CCCc3cn4c(C)ncc4c(=O)[nH]3)CC2)cn1", "Assay Endpoint": "EC50", "Number": "1.1e-08"}
{"Sample Smiles": "N#Cc1ccc(OC2CCN(C(=O)CCCc3cn4cccc4c(=O)[nH]3)CC2)cc1", "Assay Endpoint": "EC50", "Number": "1.2e-07"}
{"Sample Smiles": "COc1ccc(C(=O)C2CCN(C(=O)CCCc3cn4cncc4c(=O)[nH]3)CC2)cc1", "Assay Endpoint": "EC50", "Number": "6.7e-09"}
{"Sample Smiles": "COc1ccc(C(=O)C2CCN(C(=O)CCCc3nn4c(C)ccc4c(=O)[nH]3)CC2)cc1F", "Assay Endpoint": "EC50", "Number": "8.1e-10"}
{"Sample Smiles": "Cc1ccc(C(=O)C2CCN(C(=O)CCCc3nc4c(cnn4C)c(=O)[nH]3)CC2)cc1", "Assay Endpoint": "EC50", "Number": "1.6e-08"}
{"Sample Smiles": "CCn1cc(C(=O)C2CCN(C(=O)CCCc3nc4c(c(=O)[nH]3)COCC4)CC2)cn1", "Assay Endpoint": "EC50", "Number": "2.9e-06"}
{"Sample Smiles": "CCn1cc(C(=O)C2CCN(C(=O)CCCc3nc4c(ccn4C)c(=O)[nH]3)CC2)cn1", "Assay Endpoint": "EC50", "Number": "3.4e-08"}
{"Sample Smiles": "Cn1ccc2c(=O)[nH]c(CCCC(=O)N3CCC(C(=O)c4ccc(F)c(F)c4)CC3)nc21", "Assay Endpoint": "EC50", "Number": "8.7e-09"}
{"Sample Smiles": "COc1ccc(C(=O)C2CCN(C(=O)CCCc3nc4c(C)csc4c(=O)[nH]3)CC2)cc1C", "Assay Endpoint": "EC50", "Number": "7.7e-10"}
{"Sample Smiles": "CCn1cc(C(=O)C2CCN(C(=O)CCCc3nn4cc(F)cc4c(=O)[nH]3)CC2)cn1", "Assay Endpoint": "EC50", "Number": "1.8e-08"}
{"Sample Smiles": "COc1ccc(C(=O)C2CCN(C(=O)CCCc3nc4c(cnn4C)c(=O)[nH]3)CC2)cc1C", "Assay Endpoint": "EC50", "Number": "3.1e-10"}
{"Sample Smiles": "Cn1cc(C(=O)C2CCN(C(=O)CCCc3cn4c(F)ccc4c(=O)[nH]3)CC2)cn1", "Assay Endpoint": "EC50", "Number": "5.2e-09"}
{"Sample Smiles": "Cc1ccc2c(=O)[nH]c(CCCC(=O)N3CCC(C(=O)c4cnn(C(C)C)c4)CC3)nn12", "Assay Endpoint": "EC50", "Number": "3.3e-09"}

* * *

Target: PARP-1 (Homo sapiens)
Construct: purchased Enzo Life Sciences GmbH, Lörrach, Germany
Sequence (P09874 whole entry): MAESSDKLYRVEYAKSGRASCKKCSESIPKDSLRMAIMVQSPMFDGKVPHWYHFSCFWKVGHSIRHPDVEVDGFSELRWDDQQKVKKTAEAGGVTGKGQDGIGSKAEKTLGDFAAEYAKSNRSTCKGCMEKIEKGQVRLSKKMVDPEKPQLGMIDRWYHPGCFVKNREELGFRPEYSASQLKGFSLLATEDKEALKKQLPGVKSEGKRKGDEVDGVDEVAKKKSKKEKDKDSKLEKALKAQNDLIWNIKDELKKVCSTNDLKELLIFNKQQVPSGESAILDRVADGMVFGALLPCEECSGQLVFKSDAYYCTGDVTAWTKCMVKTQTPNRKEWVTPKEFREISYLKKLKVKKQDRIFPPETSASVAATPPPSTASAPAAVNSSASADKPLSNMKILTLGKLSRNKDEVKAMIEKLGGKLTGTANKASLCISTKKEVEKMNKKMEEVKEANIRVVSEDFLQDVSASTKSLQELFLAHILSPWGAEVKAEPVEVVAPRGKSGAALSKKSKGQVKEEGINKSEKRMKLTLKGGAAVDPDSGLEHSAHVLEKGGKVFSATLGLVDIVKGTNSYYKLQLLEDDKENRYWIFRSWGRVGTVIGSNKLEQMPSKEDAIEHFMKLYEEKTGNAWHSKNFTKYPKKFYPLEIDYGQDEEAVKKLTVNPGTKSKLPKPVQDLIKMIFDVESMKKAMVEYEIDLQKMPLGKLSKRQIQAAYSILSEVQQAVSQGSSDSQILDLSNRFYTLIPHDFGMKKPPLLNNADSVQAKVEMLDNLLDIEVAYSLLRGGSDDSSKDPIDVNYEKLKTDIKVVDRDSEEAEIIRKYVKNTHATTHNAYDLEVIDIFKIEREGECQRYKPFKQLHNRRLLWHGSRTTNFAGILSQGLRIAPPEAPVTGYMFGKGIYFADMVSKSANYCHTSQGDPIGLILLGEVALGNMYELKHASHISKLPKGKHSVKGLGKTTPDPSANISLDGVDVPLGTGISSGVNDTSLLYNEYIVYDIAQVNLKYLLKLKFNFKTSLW
Assay: PARP-1 autoparsylation assay (HTRF)
Assay type: biochemical
Settings: His-tagged Parp-1, autoparsylation HTRF
Range-based classes on measured IC50: lower band: < 2000 nM; central band: ≥ 2000 nM and < 4000 nM; upper band: ≥ 4000 nM

{"Sample Smiles": "Cc1csc2c(=O)[nH]c(CCCC(=O)N3CCC(C(=O)c4cnn(C(C)C)c4)CC3)nc12", "Class": "lower band"}
{"Sample Smiles": "COc1ccc(C(=O)C2CCN(C(=O)CCCc3nn4cc(C)cc4c(=O)[nH]3)CC2)cc1C", "Class": "central band"}
{"Sample Smiles": "Nc1ncc(C2CCN(C(=O)CCCc3nn4cccc4c(=O)[nH]3)CC2)cc1-c1ncccn1", "Class": "central band"}
{"Sample Smiles": "COc1ccc(C(=O)C2CCN(C(=O)CCCc3nn4cccc4c(=O)[nH]3)CC2)cc1C", "Class": "upper band"}
{"Sample Smiles": "Cc1scc2c(=O)[nH]c(CCCC(=O)N3CCC(C(=O)c4cnn(C(C)C)c4)CC3)nc12", "Class": "lower band"}
{"Sample Smiles": "COc1ccc(C(=O)C2CCN(C(=O)CCCc3nn4cc(F)cc4c(=O)[nH]3)CC2)cc1F", "Class": "central band"}
{"Sample Smiles": "COc1ccc(C(=O)C2CCN(C(=O)CCCc3nn4cccc4c(=O)[nH]3)CC2)cc1", "Class": "central band"}
{"Sample Smiles": "Cn1ncc2c(=O)[nH]c(CCCC(=O)N3CCC(C(=O)c4ccc(F)c(F)c4)CC3)nc21", "Class": "upper band"}
{"Sample Smiles": "O=C(c1ccc(F)cc1)C1CCN(C(=O)CCCc2nn3cccc3c(=O)[nH]2)CC1", "Class": "upper band"}
{"Sample Smiles": "Cn1ccc2c(=O)[nH]c(CCCC(=O)N3CCC(c4cnc(N)c(C#N)c4)CC3)nc21", "Class": "lower band"}
{"Sample Smiles": "Cn1cc(C(=O)C2CCN(C(=O)CCCc3nc4c(c(=O)[nH]3)COCC4)CC2)cn1", "Class": "upper band"}
{"Sample Smiles": "COc1ccc(C(=O)C2CCN(C(=O)CCCc3cn4cccc4c(=O)[nH]3)CC2)cn1", "Class": "lower band"}
{"Sample Smiles": "Cc1scc2c(=O)[nH]c(CCCC(=O)N3CCC(c4nnc(-c5ccccc5)o4)CC3)nc12", "Class": "lower band"}
{"Sample Smiles": "Cc1scc2c(=O)[nH]c(CCCC(=O)N3CCC(C(=O)c4cnn(C)c4)CC3)nc12", "Class": "lower band"}
{"Sample Smiles": "CC(C)(O)c1ccc(C(=O)C2CCN(C(=O)CCCc3nn4cc(F)cc4c(=O)[nH]3)CC2)cc1", "Class": "upper band"}

* * *

Here the recorded log10 of IC50 is given for each entry.
Biological target: TNKS1 (Homo sapiens, UniProt O95271)
Construct: GST-tagged Tnks-1 (1023-1327 aa, prepared in-house); made in house
Sequence (O95271 1023-1327): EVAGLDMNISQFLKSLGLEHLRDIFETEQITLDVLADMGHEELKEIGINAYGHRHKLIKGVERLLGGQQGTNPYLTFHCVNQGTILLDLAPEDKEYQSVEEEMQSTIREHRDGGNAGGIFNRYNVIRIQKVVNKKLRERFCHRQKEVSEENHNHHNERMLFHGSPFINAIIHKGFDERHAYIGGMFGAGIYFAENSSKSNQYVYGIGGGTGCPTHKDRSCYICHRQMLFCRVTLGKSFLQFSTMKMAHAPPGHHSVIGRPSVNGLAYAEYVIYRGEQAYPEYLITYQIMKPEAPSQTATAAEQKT
Assay: TNKS1 activity ELISA (autoparsylation assay)
Type: biochemical
Settings: GST-tagged Tnks-1 (1023-1327 aa)
Protocol: Description of the TNKS1 and TNKS2 ELISA Assay Biochemical Activity Testing of TNKS 1 and 2: Activity ELISA (Autoparsylation Assay) For analysis of autoparsylation activity of TNKS 1 and 2 an activity ELISA iss performed: In the first step GST tagged TNKS is captured on a Glutathione coated plate. Then the activity assay with biotinylated NAD is performed in the absence/presence of the compounds. […] The amount of biotinylated resp. autoparsylated TNKS is detected with a luminescence substrate for HRP. […]
Assay Endpoint: log10 of IC50 (log10 of the value in pM)

{"Molecule": "COc1ccc(C(=O)C2CCN(C(=O)CCCc3nn4cc(F)cc4c(=O)[nH]3)CC2)cn1 [Compound C170]", "Target Entity": "TNKS1 (Homo sapiens, UniProt O95271)", "log10 of IC50": 2.83}
{"Molecule": "COc1ccc(C(=O)C2CCN(C(=O)CCCc3nn4cc(F)cc4c(=O)[nH]3)CC2)cc1F [Compound C169]", "Target Entity": "TNKS1 (Homo sapiens, UniProt O95271)", "log10 of IC50": 2.23}
{"Molecule": "Cn1ccc2c(=O)[nH]c(CCCC(=O)N3CCC(c4cnc(N)c(C#N)c4)CC3)nc21 [Compound C182]", "Target Entity": "TNKS1 (Homo sapiens, UniProt O95271)", "log10 of IC50": 3.11}
{"Molecule": "Cc1csc2c(=O)[nH]c(CCCC(=O)N3CCC(C(=O)c4cnn(C(C)C)c4)CC3)nc12 [Compound C225]", "Target Entity": "TNKS1 (Homo sapiens, UniProt O95271)", "log10 of IC50": 2.86}
{"Molecule": "CCn1cc(C(=O)C2CCN(C(=O)CCCc3nc4c(ccn4C)c(=O)[nH]3)CC2)cn1 [Compound C243]", "Target Entity": "TNKS1 (Homo sapiens, UniProt O95271)", "log10 of IC50": 2.67}
{"Molecule": "COc1ccc(C(=O)C2CCN(C(=O)CCCc3nn4cccc4c(=O)[nH]3)CC2)cc1 [Compound C36]", "Target Entity": "TNKS1 (Homo sapiens, UniProt O95271)", "log10 of IC50": 2.59}
{"Molecule": "Cc1ccc2c(=O)[nH]c(CCCC(=O)N3CCC(C(=O)c4cnn(C)c4)CC3)nn12 [Compound C157]", "Target Entity": "TNKS1 (Homo sapiens, UniProt O95271)", "log10 of IC50": 2.49}
{"Molecule": "Cc1cc2c(=O)[nH]c(CCCC(=O)N3CCC(C(=O)c4cnn(C(C)C)c4)CC3)nn2c1 [Compound C220]", "Target Entity": "TNKS1 (Homo sapiens, UniProt O95271)", "log10 of IC50": 3.62}
